- measurementTarget: human recombinant P2X7 receptors (Homo sapiens)
- Construct: expressed in transfected cells
- Sequence (Q99572 whole entry): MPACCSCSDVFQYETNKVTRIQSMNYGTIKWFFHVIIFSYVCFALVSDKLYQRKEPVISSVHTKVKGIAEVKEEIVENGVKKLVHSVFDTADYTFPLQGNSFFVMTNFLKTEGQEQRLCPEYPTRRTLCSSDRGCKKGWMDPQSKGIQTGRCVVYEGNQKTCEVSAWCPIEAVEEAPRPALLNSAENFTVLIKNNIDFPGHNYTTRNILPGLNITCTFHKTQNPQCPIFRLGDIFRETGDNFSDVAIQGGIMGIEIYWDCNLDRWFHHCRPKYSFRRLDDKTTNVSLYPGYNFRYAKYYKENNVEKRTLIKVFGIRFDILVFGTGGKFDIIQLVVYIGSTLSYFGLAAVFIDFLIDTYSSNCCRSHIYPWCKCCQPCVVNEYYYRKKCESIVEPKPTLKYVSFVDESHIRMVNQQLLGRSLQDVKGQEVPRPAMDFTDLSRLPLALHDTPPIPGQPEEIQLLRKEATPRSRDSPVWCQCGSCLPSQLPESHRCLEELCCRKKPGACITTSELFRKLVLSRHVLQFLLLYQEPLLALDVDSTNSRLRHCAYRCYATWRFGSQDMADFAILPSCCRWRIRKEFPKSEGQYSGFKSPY
- procedureDetails: Ethidium Accumulation Assay 1 (HEK293 cells, ATP-induced ethidium uptake)
- Format: cell-based
- conditionsUsed: HEK293 cells expressing human P2X7; 1 mM ATP; sometimes mean of more than one measurement; read-out: Assay 1 (antagonist pIC50 for blocking ATP responses) (converted)
Attribute: IC50

Use these answered entries as a reference point.
{"columns": ["molecule", "IC50"],
 "data": [
  ["O=C(c1cccc(Cl)c1Cl)N1CCn2c(nnc2-c2ccccc2)C1 [Example 70]", "< 10 nM"],
  ["O=C(c1ccc(F)cc1Cl)N1CCn2c(nnc2-c2ccccc2O)C1 [Example 128]", "< 501 nM"]
]}

**Query** What value of IC50 has been reported for the following molecule? O=C(c1ccc(Cl)cc1Cl)N1CCn2c(nnc2-c2ccccn2)C1 [Example 76]
**Result** < 10 nM

**Query** What value of IC50 has been reported for the following molecule? Cn1ccnc1-c1nnc2n1CCN(C(=O)c1ccc(F)cc1Cl)C2 [Example 140]
**Result** < 501 nM

**Query** What value of IC50 has been reported for the following molecule? Cn1ccc(-c2nnc3n2CCN(C(=O)c2ccc(F)cc2Cl)C3)n1 [Example 72]
**Result** < 100 nM

**Query** What value of IC50 has been reported for the following molecule? O=C(c1cccc(C(F)(F)F)c1Cl)N1CCn2c(nnc2-c2ccccc2)C1 [Example 13]
**Result** < 10 nM

**Query** What value of IC50 has been reported for the following molecule? O=C(c1ccc(F)cc1Cl)N1CCn2c(nnc2-c2cccnc2)C1 [Example 39]
**Result** < 100 nM

**Query** What value of IC50 has been reported for the following molecule? O=C(c1ccc(F)c(Cl)c1)N1CCn2c(nnc2-c2cnccn2)C1 [Example 105]
**Result** < 100 nM

**Query** What value of IC50 has been reported for the following molecule? O=C(c1cccc(C(F)(F)F)c1Cl)N1CCn2c(nnc2-c2cccnn2)C1 [Example 44]
**Result** < 100 nM
